All values here come from the supplement of paper PMC6755084.

B1: minF1; the commonest letter at each place (parent)
chain: GAGACCGCAACTGAAAAGTTGTTATCAGAAATGGATGGGTTGAATTTCTGCACGTAGAAGCAAAAGGC

Variants of: B1
PROTOCOL TEXT: fraction ligated after 30 min (ligated reads / total reads); higher = more ligase activity
CONDITIONS: with F1*subA RNA substrate (template-directed ligation), 42 °C
QUANTITY NAME: fraction ligated
API note: the answer field is a bare number with no unit suffix.

Some variants with known fraction ligated results, for comparison:
> print(dat)
   variant.string     quantity.name  observed
1       C26G A31G  fraction ligated    0.0731
2       A35G T36A  fraction ligated   0.00856
3       A30G A31C  fraction ligated     0.777

Query :: # fraction ligated lookup, item A27C A30G
Result :: 0.759

Query :: Proceed to A31G A44G
Result :: 0.788

Query :: Do the same for A31C A35T please
Result :: 0.0132

Query :: Please do the same for A31T G42T as well.
Result :: 0.193

Query :: Next entry: A27T A30C
Result :: 0.822

Query :: Moving on to the next variant: A24G A27C
Result :: 0.254

Query :: Next variant: A24G G42C
Result :: 0.00119

Query :: // repeat for A29T A43T and report
Result :: 0.0859
